# reported IC50; entries follow
Target: hABHD12 (Homo sapiens)
Construct: expressed in transfected cells; host or cells: HEK293 (transient)
Sequence (Q8N2K0 1-398): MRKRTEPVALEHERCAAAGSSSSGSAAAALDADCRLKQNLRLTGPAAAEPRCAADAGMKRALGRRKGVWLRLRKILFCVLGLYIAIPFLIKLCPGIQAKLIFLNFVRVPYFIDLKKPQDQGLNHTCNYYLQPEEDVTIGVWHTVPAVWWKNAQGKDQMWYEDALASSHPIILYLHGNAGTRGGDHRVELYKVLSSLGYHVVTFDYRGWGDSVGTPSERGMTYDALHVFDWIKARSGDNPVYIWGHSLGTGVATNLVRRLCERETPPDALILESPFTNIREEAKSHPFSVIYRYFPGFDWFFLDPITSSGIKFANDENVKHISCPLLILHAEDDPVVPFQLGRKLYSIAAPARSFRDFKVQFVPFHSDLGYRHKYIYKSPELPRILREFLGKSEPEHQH
Experiment: Fluorescent glycerol assay of 1-AG hydrolysis in hABHD12-HEK293 lysates
Type: biochemical
Settings: hABHD12-HEK293 lysates, three independent experiments; read-out: -logIC50±s.e.m. (converted)
Procedure: Glycerol liberated from 1-AG hydrolysis was determined with a sensitive fluorescent assay using lysates of HEK293 cells with transient overexpression of hABHD12, hABHD6 or hMAGL, essentially as previously described. […] Fluorescence (λex 530; λem 590 nm) was monitored using a Tecan Infinite M200 plate reader (Tecan Group Ltd., Männedorf, Switzerland). […]

{"MOLECULE": "C=C(C)[C@@H]1CC[C@]2(C=O)CC[C@]3(C)[C@H](CC[C@@H]4[C@@]5(C)CCC(=O)C(C)(C)[C@@H]5CC[C@]43C)[C@@H]12", "IC50 (µM)": 4.47}
{"MOLECULE": "C=C(C)[C@@H]1CC[C@]2(C(=O)O)CC[C@]3(C)[C@H](CC[C@@H]4[C@@]5(C)CC6OC(C)(C)OC6C(C)(C)[C@@H]5CC[C@]43C)[C@@H]12 (some centres unmarked)", "IC50 (µM)": 7.41}
{"MOLECULE": "C=C(C)C1CCC2(C(=O)O)CCC3(C)C(CCC4C5(C)Cc6c([nH]c7ccccc67)C(C)(C)C5CCC43C)C12 (centres unmarked)", "IC50 (µM)": 0.933}
{"MOLECULE": "CC1(C)CC[C@]2(C(=O)O)CC[C@]3(C)C(=CC[C@@H]4[C@@]5(C)C[C@@H](O)[C@H](O)C(C)(C)[C@@H]5CC[C@]43C)[C@@H]2C1 [Compound 8, Maslinic acid, reference compound]", "IC50 (µM)": 1.26}
{"MOLECULE": "C=C(C)[C@@H]1CC[C@]2(C(=O)O)CC[C@]3(C)[C@H](CC[C@@H]4[C@@]5(C)Cc6c[nH]nc6C(C)(C)[C@@H]5CC[C@]43C)[C@@H]12", "IC50 (µM)": 1.45}
